# method_notes: NCI Yeast Anticancer Drug Screen. Data for the sgs1 mgt1 strain (AID 161);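 also: 0% = growth of cultures given vehicle only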
# stated_conditions: S. cerevisiae sgs1 mgt1 strain, at 50.0 µM (retest, dose inferred, filed as 5.0), active compounds read high
About 79,000 compounds went through this panel and 15% of them were active in at least one assay; those are over-represented in the sample as a whole.
I'd be grateful if you could share measured growth inhibition for these entries.
Output spec: scalar in %, unitless text.

Which growth inhibition reading was recorded for the compound CCCCCCCCCCOC(=O)c1ccccn1 ?
60

Reported growth inhibition, compound Cc1cc2nc3[nH]c4c(Cl)cc(Cl)cc4c3nc2cc1C : ____
3

Suppose we examine the compound CCC1([N+](=O)[O-])COC(c2ccc3c(c2)OCO3)OC1 (stereo not given) ; what growth inhibition value has been reported?
-47

Please look up its growth inhibition: COc1ccc2nccc(C(=O)CBr)c2c1
20

// growth inhibition lookup, key: COC(=O)C1(Cc2ccccc2)Cc2c(C)ccc(C)c2C1=O (stereo not given)
42

Query (compound): COC(=O)C1c2cc(C)ccc2-c2ccc(C)cc21 ; field requested: growth inhibition
23

Data request, read-out growth inhibition, for Cc1ccc(-c2n[nH]c(=O)n2/N=C\c2ccccc2)cc1
39

// query growth inhibition value for entry COc1ccc(Cc2nncc3ccccc23)cc1OC
92

Can you share its growth inhibition? I mean this compound: CS(=O)(=O)OCCN(CCOS(C)(=O)=O)c1ccc(C=Nc2ccc3ccccc3c2)cc1
45

Consider the compound COC(=O)CCC(=O)N1C/C(=C\c2ccccc2)C(=O)/C(=C/c2ccccc2)C1 and give its measured growth inhibition.
56

* * *

# method_notes: NCI Yeast Anticancer Drug Screen. Data for the sgs1 mgt1 strain (AID 161);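 also: 0% = growth of cultures given vehicle only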
# stated_conditions: S. cerevisiae sgs1 mgt1 strain, at 50.0 µM (retest, dose inferred, filed as 5.0), active compounds read high
The panel holds about 79,000 compounds, 15% with a hit somewhere; the sample as a whole holds those more often.
Would you mind telling me the reported growth inhibition of each entry?
Unit % implied. Number only.

Consider the compound shown here: c1ccc(CCCCc2ccncc2)cc1 What is its recorded growth inhibition?
47

Param item = C(=N\NC1=NCCN1)/c1ccc(-c2cn3cc(/C=N/NC4=NCCN4)ccc3n2)cc1 ; retrieve measured growth inhibition.
100

Name the recorded growth inhibition for O=Cc1c(O)ccc2ccccc12.[Cu+2] .
97

Which growth inhibition reading was recorded for the compound CC(=O)N(C1=C(Cl)C(=O)c2ccccc2C1=O)c1ccc(C)cc1 ?
100

Which growth inhibition reading was recorded for the compound C[N+]1(C)CCCC(OCCCCCCCCCCCCCCOC2CCC[N+](C)(C)C2)C1 (stereo not given) ?
97

* * *

# method_notes: NCI Yeast Anticancer Drug Screen. Data for the mec2-1 strain (AID 157)
# stated_conditions: S. cerevisiae mec2-1 strain, at 5.0 µM (retest, dose inferred, filed as 0.5), active compounds read high
The panel holds about 79,000 compounds, 15% with a hit somewhere; the sample as a whole holds those more often.
quantity_measured: growth inhibition (%)
Numbers only; they are read as %.

What does the record list as growth inhibition for CCCn1cc2c(SC)nc(SC)nc2n1 ?
0

Would you kindly share the measured growth inhibition for Clc1ccc(OCC2CO2)c(Cl)c1 (stereo unspecified) ?
-17

So what's the measured growth inhibition for this one? COc1cccc2c1OC(c1ccc(Cl)cc1)C([N+](=O)[O-])=C2 (stereo unspecified)
95

So what does the record say about growth inhibition for O=C(Nc1ccccc1)c1cccc2ccccc12 ?
4

Look up growth inhibition for this molecule: O=C1c2ccccc2C(=O)c2ncccc21
8

Quick check: growth inhibition of COc1ccc(C(=O)C2C(=O)C(=O)OC2C2OC(=O)C(=O)C2C(=O)c2ccc(OC)cc2)cc1 (stereo unspecified) ?
-3

What does the record list as growth inhibition for CC(C)c1cc2c(cc1O)C(O)C1(O)CCCC(C)(C)[C@H]1CC2 (stereo partly specified) ?
-1

Reported growth inhibition for COc1ccc(Oc2c(OC)cc(NCCCCCNC(C)C)c3ncccc23)cc1 : what is it?
13

Looking for the measured growth inhibition of CC[C@H]1CN2CCc3cc(OC)c(OC)cc3[C@@H]2C[C@@H]1C[C@H]1NCCc2cc(OC)c(OC)cc21 , can you help?
-10

Which growth inhibition is listed for C[CH2][Sn]([CH2]C)([O]C(=O)c1cc(OC)c(OC)c(OC)c1)[O][Sn]([CH2]C)([CH2]C)[O]C(=O)c1cc(OC)c(OC)c(OC)c1 ?
30

Request the reported growth inhibition associated with O=C(O)c1c(Cl)c(Cl)c(Cl)c(Cl)c1-c1c2ccc(=O)cc-2oc2cc(O)ccc12
45

Field request: growth inhibition | item: Oc1ccc2ccccc2c1I
42

For the molecule shown here, Nc1ccc(N)c2c1C(=O)c1ccccc1C2=O , give the reported growth inhibition.
-1

Request the reported growth inhibition associated with COC(=O)CCN1c2ccccc2Sc2ccccc21
-23

Look at this molecule and give its reported growth inhibition. CCCCCCCCCCC[N+]1(Cc2ccccc2)CC2CCN(Cc3ccccc3)CC2C1 (stereo unspecified)
73

Field request: growth inhibition | item: NC(Cc1ccc(O)cc1O)C(=O)O (stereo unspecified)
0

* * *

# method_notes: NCI Yeast Anticancer Drug Screen. Data for the bub3 strain (AID 167)
# stated_conditions: S. cerevisiae bub3 mutant strain, at 50.0 µM (retest, dose inferred, filed as 5.0), active compounds read high
About 79,000 compounds went through this panel and 15% of them were active in at least one assay; those are over-represented in the sample as a whole.
quantity_measured: growth inhibition (%)
Use % as the unit, but write only the number.

State the recorded growth inhibition for this entry: Nc1ccccc1C(=O)/C=C/c1ccccc1
73

What growth inhibition value was documented for this compound, O=C1C(Cl)=C(N2C(=O)CCCC2=O)C(=O)c2ccccc21 ?
99

Record request: growth inhibition value, item CS(=O)(=O)N\N=C1/C=C\C(=N/NS(C)(=O)=O)CCc2ccc(cc2)CC1
92

Param item = CCCCCN(CCCCC)C(=O)CCl ; retrieve measured growth inhibition.
58

growth inhibition lookup needed for C/C(=N\NC(=S)N1CCN(C2CCCCCC2)CC1)c1ccccn1 , thanks.
99

Consider the compound shown here: Cc1ccc(S(=O)(=O)OCC(C)(C)C)cc1 What is its recorded growth inhibition?
5

Query: growth inhibition; subject: CCCCCCCCCCCCNCc1ccc(O)c(OC)c1
97

// lookup growth inhibition for Cc1cc(N2C(=O)CSC2=S)c([N+](=O)[O-])cc1C
99

Find the recorded growth inhibition belonging to O=[N+]([O-])c1cc(Br)cc(Br)c1O and report it.
30

Given the compound Clc1ccc(OCC2CO2)c(Cl)c1 (configuration not stated) , what is its reported growth inhibition?
-7

I am curious: what growth inhibition value has been reported for CN(C)C(=S)N/N=C/c1ccccn1 ?
97

Returns the measured growth inhibition for the input compound. Input: CC1=C/C(=C\C=C2/N(C)c3c(C)cccc3C2(C)C)C(=O)c2ncccc21
98

Given the compound CCOc1ccc(C(=O)CCN2CCOCC2)cc1 , what is its reported growth inhibition?
46

Please look up its growth inhibition: ClCc1ccc(OCc2ccccc2)c(OCc2ccccc2)c1
77

Looking for the measured growth inhibition of CCS/C(SC)=C(/c1ccccc1)[P+](c1ccccc1)(c1ccccc1)c1ccccc1 , can you help?
100

Which growth inhibition value belongs to O=C(Nc1ccc(Cl)cc1)Nc1nnc(/C=C/c2ccc(Cl)c(Cl)c2)o1 ?
7

Form field: reported growth inhibition of CCCC(/C=N/N=C(N)N)=N\N=C(N)N
-2

* * *

Exercise: for every item that follows, state its recorded growth inhibition.
# method_notes: NCI Yeast Anticancer Drug Screen. Data for the rad50 strain (AID 155);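 also: 0% = growth of vehicle-only cultures of the same strain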
# stated_conditions: S. cerevisiae rad50 strain growth inhibition; at 50.0 µM; active compounds read high
This is part of a sample that, as a whole, favours compounds with a hit. Of some 79,000 tested, about 15% had one in any assay.
Kindly provide the numeric value in % only, without the unit symbol.

Dear colleague, I am looking for the recorded growth inhibition of the following compound: Cc1ccc(C(C)(C)C)c(O)c1O
91.2

I am curious: what growth inhibition value has been reported for O=P(O)(O)Oc1c(O)c2ccccc2c2ccccc12 ?
91.4

Given the entry C[N+]1(C)CCCC(OCCCCCCCCCCCCCCOC2CCC[N+](C)(C)C2)C1 (configuration not stated) , report its measured growth inhibition.
87.9

// returns reported growth inhibition for input COc1ccc(C=C(C(=O)c2ccccc2)C(=O)c2ccccc2)cc1
91.3

Recorded growth inhibition of Oc1c(Br)ccc2c(O)c(Br)ccc12 , please.
89.7

Looking for the measured growth inhibition of C=C1CC23CCC4C(C)(C(=O)O)CCCC4(C)C2CCC1C3 (configuration not stated) , can you help?
90.5

Look up growth inhibition: CCCCCCCCCCCCCCCC[N+](C)(C)C(C)c1ccccc1 (configuration not stated)
90.5

Please look up its growth inhibition: CCCCCC(C)[P+](c1ccccc1)(c1ccccc1)c1ccccc1 (configuration not stated)
90.8

So what does the record say about growth inhibition for [N-]=[N+]=CC(=O)CCC(NC(=O)OCc1ccccc1)C(=O)OCc1ccccc1 (configuration not stated) ?
91.2

For the compound O=C1OC(c2ccccc2)(c2ccccc2)CC1CN1CCOCC1 (configuration not stated) , what growth inhibition is on record?
87.8

I have this compound here, Clc1nc(Cl)nc(N2CCCc3ccccc32)n1 , and I need its recorded growth inhibition.
69.1

Find the recorded growth inhibition belonging to Nc1cccc2cccnc12 and report it.
89.3
